Target or test system: Amine oxidase [flavin-containing] B (Homo sapiens, UniProt P27338)
Sequence (P27338 whole entry): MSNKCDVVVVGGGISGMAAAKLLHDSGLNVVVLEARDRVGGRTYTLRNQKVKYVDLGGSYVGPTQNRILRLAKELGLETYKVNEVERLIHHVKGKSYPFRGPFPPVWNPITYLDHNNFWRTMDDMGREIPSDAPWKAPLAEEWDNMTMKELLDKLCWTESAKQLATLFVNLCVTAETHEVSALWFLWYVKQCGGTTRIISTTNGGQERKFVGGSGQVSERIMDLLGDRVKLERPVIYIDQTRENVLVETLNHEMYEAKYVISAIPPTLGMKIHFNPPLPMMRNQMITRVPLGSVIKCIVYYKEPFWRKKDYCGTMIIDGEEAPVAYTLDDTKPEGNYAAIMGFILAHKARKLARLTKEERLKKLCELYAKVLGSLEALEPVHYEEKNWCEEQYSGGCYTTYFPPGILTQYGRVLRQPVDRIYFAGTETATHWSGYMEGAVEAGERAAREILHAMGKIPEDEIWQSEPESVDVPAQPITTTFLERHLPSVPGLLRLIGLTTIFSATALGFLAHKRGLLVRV
Label yes when IC50 < 400 nM; otherwise no.

[
  {
    "Compound": "Cn1c(=O)c2c(c3cc(OCc4ccccc4)ccc3n2C)n(C)c1=O",
    "Group label": "no"
  },
  {
    "Compound": "Cn1c(=O)c2c(cc(OCc3ccc(Cl)c(C(F)(F)F)c3)n2C)n(C)c1=O",
    "Group label": "no"
  },
  {
    "Compound": "Cn1c(=O)c2c(cc(C#Cc3cccc(Cl)c3)n2C)n(C)c1=O",
    "Group label": "yes"
  },
  {
    "Compound": "Cn1c(=O)c2c(cc(C#Cc3ccc(Cl)cc3)n2C)n(C)c1=O",
    "Group label": "yes"
  },
  {
    "Compound": "CCn1c(=O)c2c(cc(/C=C/c3ccc(Cl)cc3)n2C)n(CC)c1=O",
    "Group label": "no"
  },
  {
    "Compound": "Cn1c(=O)c2c(cc(/C=C/c3ccc(S(C)(=O)=O)cc3)n2C)n(C)c1=O",
    "Group label": "no"
  },
  {
    "Compound": "COc1cccc(/C=C/c2cc3c(c(=O)n(C)c(=O)n3C)n2C)c1",
    "Group label": "yes"
  },
  {
    "Compound": "CCn1c(=O)c2c(nc(/C=C/c3ccc(OC)c(OC)c3)n2C)n(CC)c1=O [ISTRADEFYLLINE]",
    "Group label": "no"
  },
  {
    "Compound": "Cn1c(=O)c2c(cc(-n3cc(-c4ccc(Cl)cc4)nn3)n2C)n(C)c1=O",
    "Group label": "yes"
  },
  {
    "Compound": "Cn1c(=O)c2c(cc(Oc3cccc(Cl)c3)n2C)n(C)c1=O",
    "Group label": "no"
  },
  {
    "Compound": "Cn1c(=O)c2c(cc(/C=C/c3cccc(C(F)(F)F)c3)n2C)n(C)c1=O",
    "Group label": "no"
  },
  {
    "Compound": "Cn1c(/C=C/c2ccccc2)nc2c1ccc(=O)n2C",
    "Group label": "no"
  },
  {
    "Compound": "Cn1c(=O)c2c(cc(/C=C/c3cccc(C#N)c3)n2C)n(C)c1=O",
    "Group label": "no"
  },
  {
    "Compound": "Cn1c(=O)c2c(cc(/C=C/c3ccc(O)cc3)n2C)n(C)c1=O",
    "Group label": "no"
  },
  {
    "Compound": "Cn1c(=O)c2c(c3ccc(-c4cccc(Cl)c4)cc3n2C)n(C)c1=O",
    "Group label": "no"
  },
  {
    "Compound": "CC(=O)c1ccc(/C=C/c2cc3c(c(=O)n(C)c(=O)n3C)n2C)cc1",
    "Group label": "no"
  },
  {
    "Compound": "Cn1c(=O)c2c(cc(-c3nc4ccc(Cl)cc4o3)n2C)n(C)c1=O",
    "Group label": "no"
  }
]

====

Lab note: Ki readings collected with Adenosine receptor A2a (Homo sapiens) for the following compounds.
Sequence (P29274 whole entry): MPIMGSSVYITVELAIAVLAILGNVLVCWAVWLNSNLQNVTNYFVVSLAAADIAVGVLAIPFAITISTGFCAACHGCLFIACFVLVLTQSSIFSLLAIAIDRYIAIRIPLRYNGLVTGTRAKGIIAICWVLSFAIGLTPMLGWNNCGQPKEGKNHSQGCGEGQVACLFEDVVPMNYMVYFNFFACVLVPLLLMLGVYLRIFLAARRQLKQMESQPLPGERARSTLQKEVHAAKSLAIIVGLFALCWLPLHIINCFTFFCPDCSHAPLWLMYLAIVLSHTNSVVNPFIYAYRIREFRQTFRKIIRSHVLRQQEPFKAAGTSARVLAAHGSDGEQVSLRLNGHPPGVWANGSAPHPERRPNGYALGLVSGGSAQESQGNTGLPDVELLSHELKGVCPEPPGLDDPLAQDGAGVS

[
  {
    "Compound smiles": "Cn1c(=O)c2c(cc(/C=C/c3ccc(C#N)cc3)n2C)n(C)c1=O",
    "Ki": "> 1 µM"
  },
  {
    "Compound smiles": "Cn1c(=O)c2c(cc(/C=C/c3ccc(C(F)(F)F)cc3)n2C)n(C)c1=O",
    "Ki": "0.531 µM"
  },
  {
    "Compound smiles": "Cn1c(=O)c2c(cc(/C=C/c3ccc(O)cc3)n2C)n(C)c1=O",
    "Ki": "> 10 µM"
  },
  {
    "Compound smiles": "Cn1c(=O)c2c(cc(/C=C/c3ccc(Cl)c(Cl)c3)n2C)n(C)c1=O",
    "Ki": "> 10 µM"
  },
  {
    "Compound smiles": "Cn1c(=O)c2c(c3ccc(-c4ccccc4)cc3n2C)n(C)c1=O",
    "Ki": "> 10 µM"
  },
  {
    "Compound smiles": "Cn1c(=O)c2c(cc(Oc3cccc(Cl)c3)n2C)n(C)c1=O",
    "Ki": "> 10 µM"
  },
  {
    "Compound smiles": "Cn1c(=O)c2c(cc(C#Cc3ccc(Cl)cc3)n2C)n(C)c1=O",
    "Ki": "> 10 µM"
  },
  {
    "Compound smiles": "CCn1c(=O)c2c(cc(OCc3ccc(Cl)cc3)n2C)n(CC)c1=O",
    "Ki": "> 10 µM"
  },
  {
    "Compound smiles": "CCn1c(=O)c2c(cc(C#Cc3ccc(Cl)cc3)n2C)n(CC)c1=O",
    "Ki": "> 10 µM"
  },
  {
    "Compound smiles": "Cn1c(=O)c2c(cc(/C=C/c3ccc(S(C)(=O)=O)cc3)n2C)n(C)c1=O",
    "Ki": "> 1 µM"
  }
]

====

pKi: −log10 of the molar value.
Observed pKi for Adenosine receptor A2a (Homo sapiens, UniProt P29274), reported per entry below.

[
  {
    "Compound smiles": "CCn1c(/C=C/c2ccc(Cl)cc2)cc2c1c(=O)n(C)c(=O)n2C",
    "Target or test system": "Adenosine receptor A2a (Homo sapiens, UniProt P29274)",
    "pKi": "< 5.00"
  },
  {
    "Compound smiles": "Cn1c(=O)c2c(cc(OCc3ccc(Cl)c(C(F)(F)F)c3)n2C)n(C)c1=O",
    "Target or test system": "Adenosine receptor A2a (Homo sapiens, UniProt P29274)",
    "pKi": "< 5.00"
  },
  {
    "Compound smiles": "Cn1c(=O)c2c(cc(/C=C/c3cccc(C(F)(F)F)c3)n2C)n(C)c1=O",
    "Target or test system": "Adenosine receptor A2a (Homo sapiens, UniProt P29274)",
    "pKi": "< 5.00"
  }
]

====

Observed pIC50 for Amine oxidase [flavin-containing] A (Homo sapiens), reported per entry below.
pIC50: −log10 of the molar value.
Readout type: pIC50

[
  {
    "Compound smiles": "Cn1c(=O)c2c(cc(OCc3ccc(Cl)c(C(F)(F)F)c3)n2C)n(C)c1=O",
    "Qualifier symbol": "<",
    "Result": 5.00
  },
  {
    "Compound smiles": "Cn1c(=O)c2c(cc(OCc3ccc4ccccc4c3)n2C)n(C)c1=O",
    "Qualifier symbol": "<",
    "Result": 5.00
  },
  {
    "Compound smiles": "Cn1c(=O)c2c(cc(C#Cc3ccc(Cl)cc3)n2C)n(C)c1=O",
    "Qualifier symbol": "=",
    "Result": 5.69
  },
  {
    "Compound smiles": "Cn1c(=O)c2c(cc(/C=C/c3cccc(C(F)(F)F)c3)n2C)n(C)c1=O",
    "Qualifier symbol": "=",
    "Result": 5.24
  },
  {
    "Compound smiles": "COc1cccc(/C=C/c2cc3c(c(=O)n(C)c(=O)n3C)n2C)c1",
    "Qualifier symbol": "=",
    "Result": 5.91
  },
  {
    "Compound smiles": "Cn1c(=O)c2c(cc(C#Cc3cccc(Cl)c3)n2C)n(C)c1=O",
    "Qualifier symbol": "<",
    "Result": 5.00
  }
]
